# System: UniProtKB Q96A54
# Sequence (Q96A54 whole entry): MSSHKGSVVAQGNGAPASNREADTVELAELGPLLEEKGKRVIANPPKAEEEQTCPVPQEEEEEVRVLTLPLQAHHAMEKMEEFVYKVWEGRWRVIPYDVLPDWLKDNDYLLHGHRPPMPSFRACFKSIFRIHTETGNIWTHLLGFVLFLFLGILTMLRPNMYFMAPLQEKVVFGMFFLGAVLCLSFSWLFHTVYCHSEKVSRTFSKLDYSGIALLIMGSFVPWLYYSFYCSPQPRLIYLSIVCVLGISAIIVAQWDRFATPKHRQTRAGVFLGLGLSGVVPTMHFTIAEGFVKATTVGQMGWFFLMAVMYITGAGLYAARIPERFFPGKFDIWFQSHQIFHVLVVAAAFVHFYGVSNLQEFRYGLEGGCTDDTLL
# Experiment Description: Measurement of AMPK phosphorylation ability (Assay 1), HEK 293T cells, Western blotting
# Type: cell-based
# Parameters: HEK 293T cells (ATCC; CRL-3216, medium; host or cells: HEK 293T
# Reported Conditions: 50 μM, 10 minutes
Readout: pAMPK/AMPK (%)

molecule="Cc1ccccc1CN1CCC(NC(=O)COc2ccc(Oc3ccccn3)cc2)CC1 [Compound 46]" scale_unit=% value_reported=80.11
molecule="COc1ccc(CN2CCN(C(=O)CCNC(=O)c3ccc(Br)cc3)CC2)cc1OC [Compound 59]" scale_unit=% value_reported=78.14
molecule="CCCOc1ccc(OCC(=O)NC2CCN(C(=O)c3ccc(OCC)cc3)CC2)cc1 [Compound 44]" scale_unit=% value_reported=78.77
molecule="CC(c1ccccc1)N1CCC(NC(=O)COc2ccc(C(F)(F)F)cc2)CC1 (stereo not shown) [Compound 9]" scale_unit=% value_reported=62.46

Measured values drawn from patent US20170298051A1 for this set.
